Listing of entries alongside the reported composite z-score.
system: Inhibin beta A chain (activin A); test: small molecules binding activin A – biochemical, small-molecule microarray, 635 nm fluorescence scan, primary screen (AID 1107); settings: INHBA, higher = more signal;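 note: mouse activin A protein probed at 4.33 µg/mL on printed slides; score merges bound-protein fluorescence near 667 nm with spot signal-to-noise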
observable: composite z-score

molecule=CCCCCCC#C[Si](O[C@H](c1ccccc1)c1cn([C@H](C)c2ccccc2)nn1)(C(C)C)C(C)C observable="composite z-score" measurement=0.327
molecule="CCOC1=C2C(c3ccc(C)cc3)N(S(=O)(=O)c3ccc(C)cc3)CC2n2c(=O)n(-c3ccccc3)c(=O)n2C1 (configuration not stated)" observable="composite z-score" measurement=0.329
molecule=COc1ccc(C#Cc2ccc3c(c2)[C@]2(C(=O)N3)[C@H](C(=O)N3CCc4cc(OC)c(OC)cc4C3)[C@H]3C(=O)O[C@H](c4ccccc4)[C@H](c4ccccc4)N3[C@@H]2c2ccc(OCCO)cc2)cc1 observable="composite z-score" measurement=0.0787
molecule=COC(=O)[C@@]1(Cc2ccc(OC)cc2)[C@H]2c3cc(C(=O)N(C)C)n(Cc4ccc(OC)c(OC)c4)c3C[C@H]2CN1C(=O)c1ccccc1 observable="composite z-score" measurement=0.807
molecule=C[N+](C)(C)CCCCNC(=O)[C@H]1C[C@H]2C(=O)N3CCC[C@H]3C(=O)N2[C@H]1c1ccc(O)cc1 observable="composite z-score" measurement=-0.443
molecule=Cc1ccc(S[C@]2(C(=O)NCCN3CCOCC3)CC(=O)N(C3CCCCC3)[C@@H]2c2ccc(CO)cc2)cc1 observable="composite z-score" measurement=0.602
molecule=CCCNC(=O)[C@@]1(c2ccc([N+](=O)[O-])cc2)CC(=O)N(CC23CC4CC(CC(C4)C2)C3)[C@@H]1c1ccc(CO)cc1I observable="composite z-score" measurement=0.655
molecule=Cc1cccc(/C=C/C=O)c1 observable="composite z-score" measurement=0.561
molecule=NC(=O)NCC#Cc1ccc2c(c1)[C@]1(C(=O)N2)[C@H](C(=O)NC[C@H](O)c2ccccc2)[C@H]2C(=O)O[C@H](c3ccccc3)[C@H](c3ccccc3)N2[C@@H]1c1ccccc1OCCO observable="composite z-score" measurement=0.286
molecule=COCCCNC(=O)[C@]1(Cc2ccccc2N=[N+]=[N-])N=C(c2ccc(OCCCO)cc2)O[C@@H]1c1ccccc1CN=[N+]=[N-] observable="composite z-score" measurement=0.928
molecule=C=C(COC)C(=O)CC[C@H](OC(=O)c1cccnc1)c1ccccc1OCCO observable="composite z-score" measurement=1.22
molecule=C=CCCN(CC#C[C@H]1Oc2ccccc2S(=O)(=O)N2CCC[C@@H]12)S(=O)(=O)c1ccc(C)cc1 observable="composite z-score" measurement=1.45
molecule=C=C(CCCC)/C(=C/C[C@@H](OC(=O)c1ccncc1)c1ccc(CO)o1)c1cc(C(=O)OC)ccc1OC observable="composite z-score" measurement=0.775
molecule="CC1CC/C=C\\[C@H]2OC34C=CCN(CCN5CCOCC5)C(=O)[C@H]3N(CCCCCO)C(=O)[C@@H]4C2C(=O)O1 (some centres not stated)" observable="composite z-score" measurement=1.01
molecule="Cc1cc(C)c(C(O)C2C=CC3C(=O)NC(=O)C3N2Nc2ccccn2)c(C)c1 (configuration not stated)" observable="composite z-score" measurement=0.838
molecule=COC(=O)c1c(CC[C@@H](CO)NC(=O)Nc2ncn[nH]2)oc(C(=O)Cc2ccccc2)c1C(=O)OC observable="composite z-score" measurement=0.616
molecule="O=C1OCC=C[C@H]2OC34C=CCN(CCN5CCOCC5)C(=O)[C@H]3N(CCCCCCO)C(=O)[C@@H]4[C@@H]12 (some centres not stated)" observable="composite z-score" measurement=1.35
